Source: paper PMC11005391

- system.name: the molecule itself
- measurement.description: cell-based or functional assay
recorded.endpoint: In vitro activity (% of WT), EnzChek pyrophosphate assay, forward reaction

Briefly, In vitro activity (% of WT), EnzChek pyrophosphate assay, forward reaction measured for PaUGP K21A (enzyme, UDP-glucose pyrophosphorylase of Pseudomonas aeruginosa (galU), residues 1-279, point mutant of Strep-PaUGP; source: E. coli BL21(DE3), purified (Strep-Tactin Sepharose); not shown: Strep-tagII, N-terminal, kept) MIKKCLFPAAGYGTRFLPATAAMPKEMLPVVNKPLIQYAVEEALEAGLSEIGIVTGRGKRSLEDHFDISYELEHQIRNTDKEKYLVGIRRLIDECTFAYTRQVEMKGLGHAILTGRPLIGDEPFAVVLADDLCLNLEGDSVLKQMVKLYNQFRCSIVAIQEVPPEETNKYGVIAGEMIRDDIFRVNTMVEKPKPEEAPSNLAIIGRYILTPDIFDLIEQTEPGKGGEIQITDALMKQAQDGCVLAYKFKGKRFDCGSAEGYIEATNFCYENLYKTGKAH : 5 % of WT

Briefly, In vitro activity (% of WT), EnzChek pyrophosphate assay, forward reaction measured for PaUGP E63A (enzyme, UDP-glucose pyrophosphorylase of Pseudomonas aeruginosa (galU), residues 1-279, point mutant of Strep-PaUGP; Same construct as m1; source: E. coli BL21(DE3), purified (Strep-Tactin Sepharose); not shown: Strep-tagII, N-terminal, kept) MIKKCLFPAAGYGTRFLPATKAMPKEMLPVVNKPLIQYAVEEALEAGLSEIGIVTGRGKRSLADHFDISYELEHQIRNTDKEKYLVGIRRLIDECTFAYTRQVEMKGLGHAILTGRPLIGDEPFAVVLADDLCLNLEGDSVLKQMVKLYNQFRCSIVAIQEVPPEETNKYGVIAGEMIRDDIFRVNTMVEKPKPEEAPSNLAIIGRYILTPDIFDLIEQTEPGKGGEIQITDALMKQAQDGCVLAYKFKGKRFDCGSAEGYIEATNFCYENLYKTGKAH : 7.6 % of WT

Briefly, In vitro activity (% of WT), EnzChek pyrophosphate assay, forward reaction measured for PaUGP K59R (enzyme, UDP-glucose pyrophosphorylase of Pseudomonas aeruginosa (galU), residues 1-279, point mutant of Strep-PaUGP; Same construct as m1; source: E. coli BL21(DE3), purified (Strep-Tactin Sepharose); not shown: Strep-tagII, N-terminal, kept) MIKKCLFPAAGYGTRFLPATKAMPKEMLPVVNKPLIQYAVEEALEAGLSEIGIVTGRGRRSLEDHFDISYELEHQIRNTDKEKYLVGIRRLIDECTFAYTRQVEMKGLGHAILTGRPLIGDEPFAVVLADDLCLNLEGDSVLKQMVKLYNQFRCSIVAIQEVPPEETNKYGVIAGEMIRDDIFRVNTMVEKPKPEEAPSNLAIIGRYILTPDIFDLIEQTEPGKGGEIQITDALMKQAQDGCVLAYKFKGKRFDCGSAEGYIEATNFCYENLYKTGKAH : 1.66 % of WT

Briefly, In vitro activity (% of WT), EnzChek pyrophosphate assay, forward reaction measured for PaUGP N266D (enzyme, UDP-glucose pyrophosphorylase of Pseudomonas aeruginosa (galU), residues 1-279, point mutant of Strep-PaUGP; Same construct as m1; source: E. coli BL21(DE3), purified (Strep-Tactin Sepharose); not shown: Strep-tagII, N-terminal, kept) MIKKCLFPAAGYGTRFLPATKAMPKEMLPVVNKPLIQYAVEEALEAGLSEIGIVTGRGKRSLEDHFDISYELEHQIRNTDKEKYLVGIRRLIDECTFAYTRQVEMKGLGHAILTGRPLIGDEPFAVVLADDLCLNLEGDSVLKQMVKLYNQFRCSIVAIQEVPPEETNKYGVIAGEMIRDDIFRVNTMVEKPKPEEAPSNLAIIGRYILTPDIFDLIEQTEPGKGGEIQITDALMKQAQDGCVLAYKFKGKRFDCGSAEGYIEATDFCYENLYKTGKAH : 105 % of WT

Briefly, In vitro activity (% of WT), EnzChek pyrophosphate assay, forward reaction measured for PaUGP K21Q (enzyme, UDP-glucose pyrophosphorylase of Pseudomonas aeruginosa (galU), residues 1-279, point mutant of Strep-PaUGP; Same construct as m1; source: E. coli BL21(DE3), purified (Strep-Tactin Sepharose); not shown: Strep-tagII, N-terminal, kept) MIKKCLFPAAGYGTRFLPATQAMPKEMLPVVNKPLIQYAVEEALEAGLSEIGIVTGRGKRSLEDHFDISYELEHQIRNTDKEKYLVGIRRLIDECTFAYTRQVEMKGLGHAILTGRPLIGDEPFAVVLADDLCLNLEGDSVLKQMVKLYNQFRCSIVAIQEVPPEETNKYGVIAGEMIRDDIFRVNTMVEKPKPEEAPSNLAIIGRYILTPDIFDLIEQTEPGKGGEIQITDALMKQAQDGCVLAYKFKGKRFDCGSAEGYIEATNFCYENLYKTGKAH : 1.26 % of WT
